// reported Viskosität for each item listed
# Procedure Details: Viscosity of aqueous solutions
# Assay type: physicochemical
# Condition Details: Lösungen in Wasser mit 300 mg I/ml bei 37°C

INPUT: State the recorded Viskosität for this entry: CC(=O)N(CCC(O)CO)c1c(I)c(C(=O)N(C)C)c(I)c(N(CCC(O)CO)C(C)=O)c1I (stereo not drawn)
OUTPUT: 4,5 cps

INPUT: Another: CNC(=O)c1c(I)c(C(=O)NCC(O)CO)c(I)c(N(CCCC(O)CO)C(C)=O)c1I (stereo not drawn)
OUTPUT: 5,8 cps

INPUT: Another: CNC(=O)c1c(I)c(N(CCCC(O)CO)C(C)=O)c(I)c(N(CCCC(O)CO)C(C)=O)c1I (stereo not drawn)
OUTPUT: 7,5 cps

INPUT: Another: CC(=O)N(CCC(O)CO)c1c(I)c(C(=O)N(C)CCN(C)C(=O)c2c(I)c(N(CCC(O)CO)C(C)=O)c(I)c(N(CCC(O)CO)C(C)=O)c2I)c(I)c(N(CCC(O)CO)C(C)=O)c1I (stereo not drawn)
OUTPUT: 16,5 cps

INPUT: Another: CNC(=O)c1c(I)c(N(CCC(O)CO)C(C)=O)c(I)c(N(CCC(O)CO)C(C)=O)c1I (stereo not drawn)
OUTPUT: 5,3 cps

Could you now look at the following compound, please?
INPUT: State the recorded Viskosität for this entry: CC(=O)N(CCCC(O)CO)c1c(I)c(C(=O)N(C)C)c(I)c(N(CCCC(O)CO)C(C)=O)c1I (stereo not drawn)
OUTPUT: 6,3 cps

====

# Procedure Details: Osmolality of aqueous solutions
# Type: physicochemical
# Condition Details: Lösungen in Wasser mit 300 mg I/ml bei 37°C
Property Measured: Osmolalität (mOsmol/kg)
Give a bare numeral; the unit mOsmol/kg is implied.

INPUT: State the recorded Osmolalität for this entry: CNC(=O)c1c(I)c(N(CCC(O)CO)C(C)=O)c(I)c(N(CCC(O)CO)C(C)=O)c1I (stereo not drawn)
OUTPUT: 545

INPUT: Another: CC(=O)N(CCC(O)CO)c1c(I)c(C(=O)N(C)CCN(C)C(=O)c2c(I)c(N(CCC(O)CO)C(C)=O)c(I)c(N(CCC(O)CO)C(C)=O)c2I)c(I)c(N(CCC(O)CO)C(C)=O)c1I (stereo not drawn)
OUTPUT: 255

INPUT: Another: CNC(=O)c1c(I)c(N(CCCC(O)CO)C(C)=O)c(I)c(N(CCCC(O)CO)C(C)=O)c1I (stereo not drawn)
OUTPUT: 330

INPUT: Another: CC(=O)N(CCCC(O)CO)c1c(I)c(C(=O)N(C)C)c(I)c(N(CCCC(O)CO)C(C)=O)c1I (stereo not drawn)
OUTPUT: 500

INPUT: Another: CNC(=O)c1c(I)c(C(=O)NCC(O)CO)c(I)c(N(CCCC(O)CO)C(C)=O)c1I (stereo not drawn)
OUTPUT: 405

Others:
INPUT: State the recorded Osmolalität for this entry: CC(=O)N(CCC(O)CO)c1c(I)c(C(=O)N(C)C)c(I)c(N(CCC(O)CO)C(C)=O)c1I (stereo not drawn)
OUTPUT: 535

Where do the numbers come from? From patent EP0530343B1.
